Below, each entry is listed with its recorded TGI.
# Tested on: HCT-116 colon
# TEST_METHOD_NOTES: NCI tumour cell line growth inhibition, 48 h

Guide cases for TGI, answers given:
COc1cc(/C=C2\NC(=S)C3Cc4c(OC)c(C)c(OC)c(OC)c4C2N3C)c(OC)c(C)c1OC (configuration not stated)	> 100 µM
Cc1cccc(C)c1NC(=O)CCCC(=O)C(C#N)c1ccc(Cl)cc1 (configuration not stated)	> 100 µM

Q: Quick one: give measured TGI for CC(C)(C)OC(=O)NC(Cc1ccc(OCc2ccccc2)cn1)C(N)=O (configuration not stated)
Ans: > 100 µM

Q: For the compound CCOC(=O)Nc1ccc(C(=O)/C=C/c2ccccc2)cc1 , give its reported TGI.
Ans: 11.4 µM

Q: Give TGI for COc1cc(O)c2c(=O)c(OC)c(-c3ccc(OC)c(OC)c3)oc2c1.[Zn+2]
Ans: > 100 µM
